Entry source: patent US8993554B2

IC50 for assorted molecules
test system: LPS induced IL-6 secretion from whole blood; test: Measurement of LPS Induced IL-6 Secretion from Whole Blood; assay type: cell-based; settings: IL-6 by immunoassay, LPS 200 ng/ml, 24 hours
Structures can show the parent of a compound that is named as a salt.

[
  {
    "molecule": "CC(=O)N1c2ccc(-c3ccc(C(=O)NC(CO)CO)cn3)cc2[C@H](Nc2ccccn2)C[C@@H]1C",
    "target": "LPS induced IL-6 secretion from whole blood",
    "IC50": "50.1 to 3160 nM"
  },
  {
    "molecule": "CC(=O)N1c2ccc(-c3ccc(C(=O)N[C@H](C)CO)nc3)cc2[C@H](Nc2ccc(C#N)cn2)C[C@@H]1C",
    "target": "LPS induced IL-6 secretion from whole blood",
    "IC50": "50.1 to 3160 nM"
  },
  {
    "molecule": "CC(=O)N1c2ccc(-c3ccc(C(=O)NCCN(C)C)cc3)cc2[C@H](Nc2ccc(Cl)cc2)C[C@@H]1C",
    "target": "LPS induced IL-6 secretion from whole blood",
    "IC50": "50.1 to 3160 nM"
  },
  {
    "molecule": "CC(=O)N1c2ccc(-c3ccc(C(=O)NCCN)cc3)cc2[C@H](NC(=O)OC(C)C)C[C@@H]1C [Example 6, hydrochloride]",
    "target": "LPS induced IL-6 secretion from whole blood",
    "IC50": "50.1 to 3160 nM"
  },
  {
    "molecule": "CC(=O)N1c2ccc(-c3ccc(C(=O)N4CCOCC4)cn3)cc2[C@H](Nc2ccccn2)C[C@@H]1C",
    "target": "LPS induced IL-6 secretion from whole blood",
    "IC50": "50.1 to 3160 nM"
  },
  {
    "molecule": "CC(=O)N1c2ccc(-c3ccc(C(=O)NC(CO)CO)cc3)cc2[C@H](Nc2ccc(C#N)cn2)C[C@@H]1C",
    "target": "LPS induced IL-6 secretion from whole blood",
    "IC50": "50.1 to 3160 nM"
  },
  {
    "molecule": "CC(=O)N1c2ccc(-c3ccc(C(=O)N4CCOCC4)cn3)cc2[C@H](Nc2cccc(Cl)c2)C[C@@H]1C",
    "target": "LPS induced IL-6 secretion from whole blood",
    "IC50": "50.1 to 3160 nM"
  },
  {
    "molecule": "CC(=O)N1c2ccc(-c3ccc(C(=O)N4CCOCC4)nc3)cc2[C@H](Nc2cccc(Cl)c2)C[C@@H]1C",
    "target": "LPS induced IL-6 secretion from whole blood",
    "IC50": "50.1 to 3160 nM"
  },
  {
    "molecule": "CC(=O)N1c2ccc(-c3ccc(C(=O)NCCO)cc3)cc2[C@H](Nc2ccccc2)C[C@@H]1C",
    "target": "LPS induced IL-6 secretion from whole blood",
    "IC50": "50.1 to 3160 nM"
  },
  {
    "molecule": "CC(=O)N1c2ccc(-c3ccc(C(=O)NCCN(C)C)nc3)cc2[C@H](Nc2ccc(C#N)cn2)C[C@@H]1C",
    "target": "LPS induced IL-6 secretion from whole blood",
    "IC50": "50.1 to 3160 nM"
  },
  {
    "molecule": "CC(=O)N1c2ccc(-c3ccc(CCC(=O)NCCO)cc3)cc2[C@H](Nc2ccc(C#N)cn2)C[C@@H]1C",
    "target": "LPS induced IL-6 secretion from whole blood",
    "IC50": "50.1 to 3160 nM"
  },
  {
    "molecule": "CC(=O)N1c2ccc(-c3ccc(C(=O)N4CCOCC4)nc3)cc2[C@H](Nc2ccc(C)cn2)C[C@@H]1C",
    "target": "LPS induced IL-6 secretion from whole blood",
    "IC50": "50.1 to 3160 nM"
  },
  {
    "molecule": "CC(=O)N1c2ccc(-c3ccc(C(=O)NCCO)cc3)cc2[C@H](Nc2ccccn2)C[C@@H]1C",
    "target": "LPS induced IL-6 secretion from whole blood",
    "IC50": "50.1 to 3160 nM"
  },
  {
    "molecule": "CC(=O)N1c2ccc(-c3ccc(C(=O)NCCN)cc3)cc2[C@H](Nc2ccccn2)C[C@@H]1C",
    "target": "LPS induced IL-6 secretion from whole blood",
    "IC50": "50.1 to 3160 nM"
  },
  {
    "molecule": "CC(=O)N1c2ccc(-c3ccc(C(=O)NC(CO)CO)cn3)cc2[C@H](Nc2ccc(C#N)cn2)C[C@@H]1C",
    "target": "LPS induced IL-6 secretion from whole blood",
    "IC50": "50.1 to 3160 nM"
  },
  {
    "molecule": "CC(=O)N1c2ccc(-c3ccc(C(=O)N4CCOCC4)cn3)cc2[C@H](Nc2cnc(C)cn2)C[C@@H]1C",
    "target": "LPS induced IL-6 secretion from whole blood",
    "IC50": "50.1 to 3160 nM"
  },
  {
    "molecule": "CC(=O)N1c2ccc(-c3ccc(C(=O)N4CCNCC4)nc3)cc2[C@H](Nc2ccc(C#N)cn2)C[C@@H]1C",
    "target": "LPS induced IL-6 secretion from whole blood",
    "IC50": "50.1 to 3160 nM"
  },
  {
    "molecule": "CC(=O)N1c2ccc(-c3ccc(C(=O)NC(CO)CO)cc3)cc2[C@H](Nc2ccccn2)C[C@@H]1C",
    "target": "LPS induced IL-6 secretion from whole blood",
    "IC50": "50.1 to 3160 nM"
  },
  {
    "molecule": "CC(=O)N1c2ccc(-c3ccc(C(=O)NC(CO)CO)nc3)cc2[C@H](Nc2ccc(C#N)cn2)C[C@@H]1C",
    "target": "LPS induced IL-6 secretion from whole blood",
    "IC50": "50.1 to 3160 nM"
  },
  {
    "molecule": "CC(=O)N1c2ccc(-c3ccc(C(=O)NCCN)cc3)cc2[C@H](Nc2ccc(Cl)cc2)C[C@@H]1C",
    "target": "LPS induced IL-6 secretion from whole blood",
    "IC50": "50.1 to 3160 nM"
  },
  {
    "molecule": "CC(=O)N1c2ccc(-c3ccc(C(=O)N4CCOCC4)nc3)cc2[C@H](Nc2cnc(C)cn2)C[C@@H]1C",
    "target": "LPS induced IL-6 secretion from whole blood",
    "IC50": "50.1 to 3160 nM"
  },
  {
    "molecule": "CC(=O)N1c2ccc(-c3ccc(C(=O)N4CCOCC4)cn3)cc2[C@H](Nc2ccc(C)cn2)C[C@@H]1C",
    "target": "LPS induced IL-6 secretion from whole blood",
    "IC50": "50.1 to 3160 nM"
  },
  {
    "molecule": "CC(=O)N1c2ccc(-c3ccc(C(=O)NCCO)cn3)cc2[C@H](Nc2ccc(C#N)cn2)C[C@@H]1C",
    "target": "LPS induced IL-6 secretion from whole blood",
    "IC50": "50.1 to 3160 nM"
  }
]
